Measured mass density of individual entries
# condition-summary: 338.15 K; 101.33 kPa; Liquid; Vibrating tube method
assay-metric: mass density (kg/m3)

>>> quantitative_result("CCCCCCCCn1cc[n+](C)c1.O=S(=O)([O-])C(F)(F)F [1-octyl-3-methylimidazolium trifluoromethanesulfonate]")
1163.66
>>> quantitative_result("CCCC[n+]1ccn(C)c1.O=S(=O)([N-]S(=O)(=O)C(F)(F)F)C(F)(F)F")
1396.41
>>> quantitative_result("CCCCCCCCn1cc[n+](C)c1.O=S(=O)([N-]S(=O)(=O)C(F)(F)F)C(F)(F)F")
1285.38
>>> quantitative_result("CCCC[n+]1ccccc1.O=S(=O)([N-]S(=O)(=O)C(F)(F)F)C(F)(F)F [1-butylpyridinium bis[(trifluoromethyl)sulfonyl]imide]")
1411.23
>>> quantitative_result("CCCCCCCCCCCCn1cc[n+](C)c1.O=S(=O)([N-]S(=O)(=O)C(F)(F)F)C(F)(F)F")
1196.67

---

# condition-summary: 288.15 K; 101.33 kPa; Liquid; Vibrating tube method
assay-metric: mass density (kg/m3)

>>> quantitative_result("CCCC[n+]1ccn(C)c1.O=S(=O)([N-]S(=O)(=O)C(F)(F)F)C(F)(F)F")
1443.95
>>> quantitative_result("CCCCCCCCCCCCn1cc[n+](C)c1.O=S(=O)([N-]S(=O)(=O)C(F)(F)F)C(F)(F)F")
1238.73
>>> quantitative_result("CCCC[n+]1ccccc1.O=S(=O)([N-]S(=O)(=O)C(F)(F)F)C(F)(F)F [1-butylpyridinium bis[(trifluoromethyl)sulfonyl]imide]")
1457.74
>>> quantitative_result("CCCCCCCCn1cc[n+](C)c1.O=S(=O)([N-]S(=O)(=O)C(F)(F)F)C(F)(F)F")
1329.44
>>> quantitative_result("CCCCCCCCn1cc[n+](C)c1.O=S(=O)([O-])C(F)(F)F [1-octyl-3-methylimidazolium trifluoromethanesulfonate]")
1200.83

---

Measured mass density of individual entries
# condition-summary: 308.15 K; 101.33 kPa; Liquid; Vibrating tube method
assay-metric: mass density (kg/m3)

>>> quantitative_result("CCCCCCCCCCCCn1cc[n+](C)c1.O=S(=O)([N-]S(=O)(=O)C(F)(F)F)C(F)(F)F")
1221.7
>>> quantitative_result("CCCC[n+]1ccn(C)c1.O=S(=O)([N-]S(=O)(=O)C(F)(F)F)C(F)(F)F")
1424.73
>>> quantitative_result("CCCC[n+]1ccccc1.O=S(=O)([N-]S(=O)(=O)C(F)(F)F)C(F)(F)F [1-butylpyridinium bis[(trifluoromethyl)sulfonyl]imide]")
1438.91
>>> quantitative_result("CCCCCCCCn1cc[n+](C)c1.O=S(=O)([O-])C(F)(F)F [1-octyl-3-methylimidazolium trifluoromethanesulfonate]")
1185.9
>>> quantitative_result("CCCCCCCCn1cc[n+](C)c1.O=S(=O)([N-]S(=O)(=O)C(F)(F)F)C(F)(F)F")
1311.64

---

# condition-summary: 313.15 K; 101.33 kPa; Liquid; Vibrating tube method
Measured mass density of individual entries
assay-metric: mass density (kg/m3)

>>> quantitative_result("CCCC[n+]1ccccc1.O=S(=O)([N-]S(=O)(=O)C(F)(F)F)C(F)(F)F [1-butylpyridinium bis[(trifluoromethyl)sulfonyl]imide]")
1434.25
>>> quantitative_result("CCC(=O)[O-].C[NH2+]CCO [2-hydroxy-N-methylethanaminium propionate]")
1054.19
>>> quantitative_result("CCCCCCCCn1cc[n+](C)c1.O=S(=O)([N-]S(=O)(=O)C(F)(F)F)C(F)(F)F")
1307.23
>>> quantitative_result("CCCC(=O)[O-].C[NH2+]CCO [N-methyl-2-hydroxyethylammonium butanoate]")
1024.03
>>> quantitative_result("CCCC[n+]1ccn(C)c1.O=S(=O)([N-]S(=O)(=O)C(F)(F)F)C(F)(F)F")
1419.98
>>> quantitative_result("CC(=O)[O-].C[NH2+]CCO [N-methyl-2-hydroxyethylammonium acetate]")
1086.4
>>> quantitative_result("CCCCCCCCCCCCn1cc[n+](C)c1.O=S(=O)([N-]S(=O)(=O)C(F)(F)F)C(F)(F)F")
1217.48
>>> quantitative_result("CCCCCCCCn1cc[n+](C)c1.O=S(=O)([O-])C(F)(F)F [1-octyl-3-methylimidazolium trifluoromethanesulfonate]")
1182.17

---

# condition-summary: 323.15 K; 101.33 kPa; Liquid; Vibrating tube method
assay-metric: mass density (kg/m3)

>>> quantitative_result("CCCCCCCCn1cc[n+](C)c1.O=S(=O)([N-]S(=O)(=O)C(F)(F)F)C(F)(F)F")
1298.45
>>> quantitative_result("CCCC[n+]1ccn(C)c1.O=S(=O)([N-]S(=O)(=O)C(F)(F)F)C(F)(F)F")
1410.5
>>> quantitative_result("CCCC(=O)[O-].C[NH2+]CCO [N-methyl-2-hydroxyethylammonium butanoate]")
1016.9
>>> quantitative_result("CCCCCCCCCCCCn1cc[n+](C)c1.O=S(=O)([N-]S(=O)(=O)C(F)(F)F)C(F)(F)F")
1209.09
>>> quantitative_result("CCC(=O)[O-].C[NH2+]CCO [2-hydroxy-N-methylethanaminium propionate]")
1047.12
>>> quantitative_result("CCCCCCCCn1cc[n+](C)c1.O=S(=O)([O-])C(F)(F)F [1-octyl-3-methylimidazolium trifluoromethanesulfonate]")
1174.72
>>> quantitative_result("CC(=O)[O-].C[NH2+]CCO [N-methyl-2-hydroxyethylammonium acetate]")
1079.7
>>> quantitative_result("CCCC[n+]1ccccc1.O=S(=O)([N-]S(=O)(=O)C(F)(F)F)C(F)(F)F [1-butylpyridinium bis[(trifluoromethyl)sulfonyl]imide]")
1425

---

# condition-summary: 343.15 K; 101.33 kPa; Liquid; Vibrating tube method
Measured mass density of individual entries
assay-metric: mass density (kg/m3)

>>> quantitative_result("CCCC[n+]1ccn(C)c1.O=S(=O)([N-]S(=O)(=O)C(F)(F)F)C(F)(F)F")
1391.74
>>> quantitative_result("CCC(=O)[O-].C[NH2+]CCO [2-hydroxy-N-methylethanaminium propionate]")
1032.71
>>> quantitative_result("CCCCCCCCCCCCn1cc[n+](C)c1.O=S(=O)([N-]S(=O)(=O)C(F)(F)F)C(F)(F)F")
1192.54
>>> quantitative_result("CCCCCCCCn1cc[n+](C)c1.O=S(=O)([O-])C(F)(F)F [1-octyl-3-methylimidazolium trifluoromethanesulfonate]")
1159.99
>>> quantitative_result("CC(=O)[O-].C[NH2+]CCO [N-methyl-2-hydroxyethylammonium acetate]")
1066.1
>>> quantitative_result("CCCC[n+]1ccccc1.O=S(=O)([N-]S(=O)(=O)C(F)(F)F)C(F)(F)F [1-butylpyridinium bis[(trifluoromethyl)sulfonyl]imide]")
1406.74
>>> quantitative_result("CCCC(=O)[O-].C[NH2+]CCO [N-methyl-2-hydroxyethylammonium butanoate]")
1002.38
>>> quantitative_result("CCCCCCCCn1cc[n+](C)c1.O=S(=O)([N-]S(=O)(=O)C(F)(F)F)C(F)(F)F")
1281.05

---

# condition-summary: 348.15 K; 101.33 kPa; Liquid; Vibrating tube method
Measured mass density of individual entries
assay-metric: mass density (kg/m3)

>>> quantitative_result("CCCCCCCCCCCCn1cc[n+](C)c1.O=S(=O)([N-]S(=O)(=O)C(F)(F)F)C(F)(F)F")
1188.43
>>> quantitative_result("CCCCCCCCn1cc[n+](C)c1.O=S(=O)([N-]S(=O)(=O)C(F)(F)F)C(F)(F)F")
1276.72
>>> quantitative_result("CCCC[n+]1ccccc1.O=S(=O)([N-]S(=O)(=O)C(F)(F)F)C(F)(F)F [1-butylpyridinium bis[(trifluoromethyl)sulfonyl]imide]")
1402.15
>>> quantitative_result("CCCCCCCCn1cc[n+](C)c1.O=S(=O)([O-])C(F)(F)F [1-octyl-3-methylimidazolium trifluoromethanesulfonate]")
1156.33
>>> quantitative_result("CCCC[n+]1ccn(C)c1.O=S(=O)([N-]S(=O)(=O)C(F)(F)F)C(F)(F)F")
1387.07

---

# condition-summary: 303.15 K; 101.33 kPa; Liquid; Vibrating tube method
assay-metric: mass density (kg/m3)

>>> quantitative_result("CCCC[n+]1ccn(C)c1.O=S(=O)([N-]S(=O)(=O)C(F)(F)F)C(F)(F)F")
1429.51
>>> quantitative_result("CCC(=O)[O-].C[NH2+]CCO [2-hydroxy-N-methylethanaminium propionate]")
1061.16
>>> quantitative_result("CC(=O)[O-].C[NH2+]CCO [N-methyl-2-hydroxyethylammonium acetate]")
1093
>>> quantitative_result("CCCCCCCCn1cc[n+](C)c1.O=S(=O)([N-]S(=O)(=O)C(F)(F)F)C(F)(F)F")
1316.08
>>> quantitative_result("CCCCCCCCCCCCn1cc[n+](C)c1.O=S(=O)([N-]S(=O)(=O)C(F)(F)F)C(F)(F)F")
1225.93
